Values were extracted from patent US20220282217A1.

Below is a list of entries, each paired with its recorded log10(IC50) value.
- TEST_SYSTEM: T1, HLA class I molecule A02.01
- T1 construct: Purified MHC class I complex; also called HLA-A02:01
- ASSAY_OVERVIEW: competition with radiolabeled reference peptide on purified MHC I
OBSERVATION_TYPE: log10(IC50) (log10 of the value in nM)

| BINDER | log10(IC50) |
| --- | --- |
| VLHESNSPYI (also called MEK, C121S) | 2.12 |
| FELLPIPPL (also called MYC, T58I) | 2.74 |
| ITAFFFCWI (also called NDUFC2 (-KCDT14)(+1)) | 3.87 |
| YQQQQQSDL (also called MYC, E39D) | 2.90 |
| QVLHECNSL (also called MEK, P124L) | 3.89 |
| AIQPVLWTT (also called GATA3 . . ; CSNH) | 0.91 |
| TIGGPTLVII (also called KIT, T670I) | 4.03 |
| FQMQPLSLM (also called JAK1(-1)) | 2.74 |
